- System: ALOMY
- Assay remarks: Post-emergence action against ALOMY, 1.28 kg/ha
- Format: in vivo, Alopecurus myosuroides
- Experimental setup: dosage 1280 g/ha, visual rating about 3 weeks after treatment vs untreated controls
Measured Post-emergence action against ALOMY values are reported for all entries that follow.
Answer with a number only, understood to be in %.

Below, 10 compounds whose answers are already recorded.
CCOC(=O)COc1nn(-c2ccccc2F)c(-c2ccc(F)nc2)c1C(F)(F)F | 100
COC(=O)COc1nn(-c2ccccc2F)c(-c2ccc(F)nc2)c1SC | 90
O=C(O)C1CCN(C(=O)COc2nn(-c3ccccc3F)c(-c3cncc(F)c3)c2Br)CC1 | 90
CN(C)S(=O)(=O)NC(=O)COc1nn(-c2ccccc2F)c(-c2ccc(F)nc2)c1Br | 100
O=C(O)COc1nn(-c2ccc(F)cc2)c(-c2ccc(F)nc2)c1C(F)(F)F | 100
CCOC(=O)C(C)Oc1nn(-c2ccccc2F)c(-c2ccc(F)nc2)c1Br (stereo not drawn) | 100
COC(=O)CNC(=O)COc1nn(-c2ccccc2F)c(-c2ccc(F)nc2)c1C(F)(F)F | 100
COC(=O)COc1nn(-c2ccccc2F)c(-c2cncc(F)c2)c1Br | 100
COC(=O)C(C)Oc1nn(-c2ccccc2)c(-c2ccc(F)nc2)c1Br (stereo not drawn) [VII-026] | 100
COC(=O)COc1nn(-c2cc(F)ccc2F)c(-c2ccnc(F)c2)c1Br | 100

Input line: Report Post-emergence action against ALOMY for `CON(C)C(=O)COc1nn(-c2ccccc2F)c(-c2ccc(F)nc2)c1Br` please.
Output line: 100

Input line: One more compound: `COC(=O)CNC(=O)COc1nn(-c2ccccc2F)c(-c2ccc(F)cn2)c1Br`
Output line: 90

Input line: One more compound: `CCOC(=O)COc1nn(-c2ccccc2F)c(-c2ccnnc2)c1Br`
Output line: 100

Input line: One more compound: CC(Oc1nn(-c2ccccc2F)c(-c2ccc(F)nc2)c1C(F)(F)F)C(=O)O (stereo not drawn)
Output line: 100
